Reference for the values: the NIST ThermoML archive (doi:10.1016/j.jct.2011.11.021)

# experiment: activity coefficient (dimensionless); of the first substance listed, at infinite dilution; xn = mol fraction of the nth substance listed
# assay-conditions: 338.15 K; Liquid; Chromatography; x1 = 0

compound	activity coefficient
C=C(C)c1ccccc1 [(1-methylethenyl)benzene] + COCC[N+]1(C)CCOCC1.O=S(=O)([N-]S(=O)(=O)C(F)(F)F)C(F)(F)F	2.76
COC(C)=O [methyl ethanoate] + COCC[N+]1(C)CCOCC1.O=S(=O)([N-]S(=O)(=O)C(F)(F)F)C(F)(F)F	0.714
CCCC(=O)OC [methyl butanoate] + COCC[N+]1(C)CCOCC1.O=S(=O)([N-]S(=O)(=O)C(F)(F)F)C(F)(F)F	1.45
c1ccsc1 [thiophene] + COCC[N+]1(C)CCOCC1.O=S(=O)([N-]S(=O)(=O)C(F)(F)F)C(F)(F)F	1.08
Cc1cccc(C)c1 [1,3-dimethylbenzene] + COCC[N+]1(C)CCOCC1.O=S(=O)([N-]S(=O)(=O)C(F)(F)F)C(F)(F)F	2.99
Cc1ccccc1C [1,2-dimethylbenzene] + COCC[N+]1(C)CCOCC1.O=S(=O)([N-]S(=O)(=O)C(F)(F)F)C(F)(F)F	2.68
CCC(=O)OC [methyl propanoate] + COCC[N+]1(C)CCOCC1.O=S(=O)([N-]S(=O)(=O)C(F)(F)F)C(F)(F)F	0.982

----------
# experiment: activity coefficient (dimensionless); of the first substance listed, at infinite dilution; xn = mol fraction of the nth substance listed
# assay-conditions: 348.15 K; Liquid; Chromatography; x1 = 0
Reported activity coefficient values for the following molecules.

molecule	activity coefficient
C1CCCCC1 [cyclohexane] + COCC[N+]1(C)CCOCC1.O=S(=O)([N-]S(=O)(=O)C(F)(F)F)C(F)(F)F	14.4
CCCCO [butan-1-ol] + COCC[N+]1(C)CCOCC1.O=S(=O)([N-]S(=O)(=O)C(F)(F)F)C(F)(F)F	2.4
CCCCCCCCCC [decane] + COCC[N+]1(C)CCOCC1.O=S(=O)([N-]S(=O)(=O)C(F)(F)F)C(F)(F)F	126
CCCO [propan-1-ol] + COCC[N+]1(C)CCOCC1.O=S(=O)([N-]S(=O)(=O)C(F)(F)F)C(F)(F)F	1.79

----------
# experiment: activity coefficient (dimensionless); of the first substance listed, at infinite dilution; xn = mol fraction of the nth substance listed
# assay-conditions: 368.15 K; Liquid; Chromatography; x1 = 0
Reported activity coefficient values for the following compounds.
endpoint-name: activity coefficient

compound	numeric-value
CCOC(C)=O [ethyl acetate] + COCC[N+]1(C)CCOCC1.O=S(=O)([N-]S(=O)(=O)C(F)(F)F)C(F)(F)F	1.06
CCCCO [butan-1-ol] + COCC[N+]1(C)CCOCC1.O=S(=O)([N-]S(=O)(=O)C(F)(F)F)C(F)(F)F	2.02
CCOCC [diethyl ether] + COCC[N+]1(C)CCOCC1.O=S(=O)([N-]S(=O)(=O)C(F)(F)F)C(F)(F)F	3.37
CC(C)=O [acetone] + COCC[N+]1(C)CCOCC1.O=S(=O)([N-]S(=O)(=O)C(F)(F)F)C(F)(F)F	0.48
CCCCCCC [heptane] + COCC[N+]1(C)CCOCC1.O=S(=O)([N-]S(=O)(=O)C(F)(F)F)C(F)(F)F	33.1
CCC(=O)OC [methyl propanoate] + COCC[N+]1(C)CCOCC1.O=S(=O)([N-]S(=O)(=O)C(F)(F)F)C(F)(F)F	1.03
C#CCCCC [1-hexyne] + COCC[N+]1(C)CCOCC1.O=S(=O)([N-]S(=O)(=O)C(F)(F)F)C(F)(F)F	4.61
C1CCOC1 [tetrahydrofuran] + COCC[N+]1(C)CCOCC1.O=S(=O)([N-]S(=O)(=O)C(F)(F)F)C(F)(F)F	0.895
COC(C)=O [methyl ethanoate] + COCC[N+]1(C)CCOCC1.O=S(=O)([N-]S(=O)(=O)C(F)(F)F)C(F)(F)F	0.754
C=CCCC [1-pentene] + COCC[N+]1(C)CCOCC1.O=S(=O)([N-]S(=O)(=O)C(F)(F)F)C(F)(F)F	8.35
CCCC(C)=O [pentan-2-one] + COCC[N+]1(C)CCOCC1.O=S(=O)([N-]S(=O)(=O)C(F)(F)F)C(F)(F)F	0.925
Cc1ccccc1 [toluene] + COCC[N+]1(C)CCOCC1.O=S(=O)([N-]S(=O)(=O)C(F)(F)F)C(F)(F)F	1.97
O [water] + COCC[N+]1(C)CCOCC1.O=S(=O)([N-]S(=O)(=O)C(F)(F)F)C(F)(F)F	1.41
C1CCCCCC1 [cycloheptane] + COCC[N+]1(C)CCOCC1.O=S(=O)([N-]S(=O)(=O)C(F)(F)F)C(F)(F)F	16.6
C1=CCCCC1 [cyclohexene] + COCC[N+]1(C)CCOCC1.O=S(=O)([N-]S(=O)(=O)C(F)(F)F)C(F)(F)F	7.08

----------
Reported activity coefficient values for the following molecules.
# experiment: activity coefficient (dimensionless); of the first substance listed, at infinite dilution; xn = mol fraction of the nth substance listed
# assay-conditions: 368.15 K; Liquid; Chromatography; x1 = 0
endpoint-name: activity coefficient

molecule	result
CCCC=O [butanal] + COCC[N+]1(C)CCOCC1.O=S(=O)([N-]S(=O)(=O)C(F)(F)F)C(F)(F)F	0.918
CCC(C)O (centres undefined) [butan-2-ol] + COCC[N+]1(C)CCOCC1.O=S(=O)([N-]S(=O)(=O)C(F)(F)F)C(F)(F)F	1.78
C#CCCCCC [1-heptyne] + COCC[N+]1(C)CCOCC1.O=S(=O)([N-]S(=O)(=O)C(F)(F)F)C(F)(F)F	6.65
c1ccncc1 [pyridine] + COCC[N+]1(C)CCOCC1.O=S(=O)([N-]S(=O)(=O)C(F)(F)F)C(F)(F)F	0.658

----------
# experiment: activity coefficient (dimensionless); of the first substance listed, at infinite dilution; xn = mol fraction of the nth substance listed
# assay-conditions: 318.15 K; Liquid; Chromatography; x1 = 0
Reported activity coefficient values for the following compounds.
endpoint-name: activity coefficient

compound	result
CC(C)CO [2-methyl-1-propanol] + COCC[N+]1(C)CCOCC1.O=S(=O)([N-]S(=O)(=O)C(F)(F)F)C(F)(F)F	3.19
CCCCC [pentane] + COCC[N+]1(C)CCOCC1.O=S(=O)([N-]S(=O)(=O)C(F)(F)F)C(F)(F)F	25
CC(C)=O [acetone] + COCC[N+]1(C)CCOCC1.O=S(=O)([N-]S(=O)(=O)C(F)(F)F)C(F)(F)F	0.43
C1CCCC1 [cyclopentane] + COCC[N+]1(C)CCOCC1.O=S(=O)([N-]S(=O)(=O)C(F)(F)F)C(F)(F)F	12.2
CCO [ethanol] + COCC[N+]1(C)CCOCC1.O=S(=O)([N-]S(=O)(=O)C(F)(F)F)C(F)(F)F	1.77
CCCC(C)=O [pentan-2-one] + COCC[N+]1(C)CCOCC1.O=S(=O)([N-]S(=O)(=O)C(F)(F)F)C(F)(F)F	0.88
CCOC(C)(C)C [2-ethoxy-2-methylpropane] + COCC[N+]1(C)CCOCC1.O=S(=O)([N-]S(=O)(=O)C(F)(F)F)C(F)(F)F	9.5

----------
Reported activity coefficient values for the following molecules.
# experiment: activity coefficient (dimensionless); of the first substance listed, at infinite dilution; xn = mol fraction of the nth substance listed
# assay-conditions: 368.15 K; Liquid; Chromatography; x1 = 0

molecule	activity coefficient
C1COCCO1 [1,4-dioxane] + COCC[N+]1(C)CCOCC1.O=S(=O)([N-]S(=O)(=O)C(F)(F)F)C(F)(F)F	0.674
CCC(C)(C)C [2,2-dimethylbutane] + COCC[N+]1(C)CCOCC1.O=S(=O)([N-]S(=O)(=O)C(F)(F)F)C(F)(F)F	19.5
C1CCCCC1 [cyclohexane] + COCC[N+]1(C)CCOCC1.O=S(=O)([N-]S(=O)(=O)C(F)(F)F)C(F)(F)F	12.3
CC(C)CC(C)(C)C [2,2,4-trimethylpentane] + COCC[N+]1(C)CCOCC1.O=S(=O)([N-]S(=O)(=O)C(F)(F)F)C(F)(F)F	34.1

----------
# experiment: activity coefficient (dimensionless); of the first substance listed, at infinite dilution; xn = mol fraction of the nth substance listed
# assay-conditions: 348.15 K; Liquid; Chromatography; x1 = 0
Reported activity coefficient values for the following compounds.
endpoint-name: activity coefficient

compound	numeric-value
CC(C)CC(C)(C)C [2,2,4-trimethylpentane] + COCC[N+]1(C)CCOCC1.O=S(=O)([N-]S(=O)(=O)C(F)(F)F)C(F)(F)F	40.8
Cc1ccc(C)cc1 [1,4-dimethylbenzene] + COCC[N+]1(C)CCOCC1.O=S(=O)([N-]S(=O)(=O)C(F)(F)F)C(F)(F)F	3
C#CCCCC [1-hexyne] + COCC[N+]1(C)CCOCC1.O=S(=O)([N-]S(=O)(=O)C(F)(F)F)C(F)(F)F	4.7
C#CCCCCCC [1-octyne] + COCC[N+]1(C)CCOCC1.O=S(=O)([N-]S(=O)(=O)C(F)(F)F)C(F)(F)F	10.3
COC(C)=O [methyl ethanoate] + COCC[N+]1(C)CCOCC1.O=S(=O)([N-]S(=O)(=O)C(F)(F)F)C(F)(F)F	0.729
C1COCCO1 [1,4-dioxane] + COCC[N+]1(C)CCOCC1.O=S(=O)([N-]S(=O)(=O)C(F)(F)F)C(F)(F)F	0.638
CCCC(=O)OC [methyl butanoate] + COCC[N+]1(C)CCOCC1.O=S(=O)([N-]S(=O)(=O)C(F)(F)F)C(F)(F)F	1.45
